experiment: in vitro; format: cell-based, Trypanosoma brucei; details: 427, rat; IC50 against L6 cells/IC50 against T. brucei; read-out: SI (selectivity index, ratio of cytotoxic to trypanocidal IC50 values)
endpoint-label: selectivity ratio
Numbers only.

I am curious: what selectivity ratio value has been reported for C=CCC1=CC2Cc3nc4cc(Cl)ccc4c(N)c3C(C1)C2 (stereo not shown) [huprine 9] ? 16.3

====

What SI (selectivity index, ratio of cytotoxic to trypanocidal IC50 values) was measured for each of the following?
system: bloodstream form T. brucei; test: microbe, parasite or virus in culture; assay type: cell-based, Trypanosoma brucei; settings: IC50 against L6 cells/IC50 against T. brucei
Give bare numbers.

# batch size: 4; output SI (selectivity index, ratio of cytotoxic to trypanocidal IC50 values) per entry
1. CCC1=CC2Cc3nc4cccc(Cl)c4c(N)c3C(C1)C2 (stereo not shown) [huprine 18]
2. CC1=CC2Cc3nc4cc(C)ccc4c(N)c3C(C1)C2 (stereo not shown) [huprine 17]
3. CC(C)(C)C1=CC2Cc3nc4ccccc4c(N)c3C(C1)C2 (stereo not shown) [huprine 14]
4. CCC1=CC2Cc3nc4ccccc4c(N)c3C(C1)C2 (stereo not shown) [huprine 12]

[15.7, 19.2, 13.2, 12.1]
